Data provenance: a melting point compilation (Tetko et al.; mined from patent text by program, amines drawn as free bases though some values may be those of a salt)

Provide the reported melting point of each item.

Use these answered entries as a reference point.
Molecule | melting point
CCOC(=O)c1ccc(-c2nc(COc3ccc(COc4nn(-c5ccccc5)cc4/C=C\c4csc(CC)n4)cc3OC)c(C)o2)s1 | 118 to 119 °C
COC(=O)c1sc(Cl)c(Cl)c1O | 107 to 108 °C
NCCc1c[nH]c2ccc(-c3ccc(F)cc3)cc12 | > 250 °C
CCCCCCCCCCCCCCCCCCOc1cc(OCCCOc2cccc(N)c2)cc(C(=O)N(CC(=O)O)CC(=O)O)c1 | 100 to 104 °C
COc1cc(N(C)c2nccc(-c3ccncc3)n2)cc(OC)c1OC | 139 °C
CN1CCc2c([nH]c3ccc(NS(=O)(=O)c4ccc(N)cc4)cc23)C1 | 236 to 237 °C
CCCn1c(COCC)nc2c(N)nc3ccc(OCCCN4CCCC4=O)cc3c21 | 188 to 190 °C
Cc1cn(C(C)(C)C(=O)N(C)C)nc1-c1ccccc1 | 107 to 109 °C

Quick one: give me melting point for each item below, same order please.
1. Oc1ccc(Oc2cccc(Cl)n2)cc1
2. O=c1nc(N2CCC(O)CC2)sc2ncccc12
3. CC(C(N)=O)c1ccc2c(c1)C(=O)Cc1ccccc1S2 (centres undefined)

OUT:
1: 125 to 130 °C; 2: 206 to 207 °C; 3: 190 to 192 °C
